measuredTarget: human GLP-1 receptor (human, UniProt P43220 24-463)
measurementNotes: cell-based or functional assay
Where no end group is shown, it is not given here.
attributeMeasured: Cyclic AMP-producing activity, relative to naturally occurring GLP-1 (=100%), at × 10^-9 M
Write the number in % without appending the unit.

> print(dat)
                                     binder  displayunit  measuredvalue
1  HSEGTFTSDVSSYLEGQAAKEFIAWLVKGRRRRRRRRR-NH2 [[Ser^8]-GLP-1 (7-35)-Arg-Arg-Arg-Arg-Arg-Arg-Arg-Arg-Arg-NH2]            %           95.9
2  HSEGTFTSDVSSYLEGQAAKEFIAWLVKGRRRRRRR-NH2 [[Ser^8]-GLP-1 (7-35)-Arg-Arg-Arg-Arg-Arg-Arg-Arg-NH2]            %           80.6
3  HSEGTFTSDVSSYLEGQAAKEFIAWLVKGKKKKKR-NH2 [[Ser^8]-GLP-1 (7-35)-Lys-Lys-Lys-Lys-Lys-Arg-NH2]            %           63.4
4  HSEGTFTSDVSSYLEGQAAKEFIAWLVKGRKK-NH2 [[Ser^8]-GLP-1 (7-35)-Arg-Lys-Lys-NH2]            %           88.8

Just so you know, measured Cyclic AMP-producing activity, relative to naturally occurring GLP-1 (=100%), at × 10^-9 M for HSEGTFTSDVSSYLEGQAAKEFIAWLVKGKKKKKKKKKKR-NH2 [[Ser^8]-GLP-1 (7-35)-Lys-Lys-Lys-Lys-Lys-Lys-Lys-Lys-Lys-Lys-Arg-NH2] came out at 55.4
